experiment: Cytotoxicity (CellTiter 96 AQueous One, MTS); assay type: cell-based, human; settings: human; CCRF−CEM cells
property.name: CC50 (µM)
Numbers only here, please. The scale is µM.

Query :: Look up CC50 for this compound: Cc1cn([C@H]2C[C@H](N=[N+]=[N-])[C@@H](CO)O2)c(=O)[nH]c1=O [AZT, 3′-azido-3′-deoxythymidine, reference compound]
Result :: 14.3

----------
test: Cytotoxicity (CellTiter 96 AQueous One, MTS); type: cell-based; conditions: human; PBM cells
property.name: CC50 (nM)
Numbers only here, please. The scale is nM.

Query :: Look up CC50 for this compound: c1cc(CNC23CC4CC(CC(C4)C2)C3)cc(C[N+](Cc2cccc(CNC34CC5CC(CC(C5)C3)C4)c2)(Cc2cccc(CNC34CC5CC(CC(C5)C3)C4)c2)Cc2cccc(CNC34CC5CC(CC(C5)C3)C4)c2)c1 (centres unmarked) [Compound 1]
Result :: 2200
